tested.target: human CYP4F2 (Homo sapiens (Human), UniProt P78329)
Sequence (P78329 5-520): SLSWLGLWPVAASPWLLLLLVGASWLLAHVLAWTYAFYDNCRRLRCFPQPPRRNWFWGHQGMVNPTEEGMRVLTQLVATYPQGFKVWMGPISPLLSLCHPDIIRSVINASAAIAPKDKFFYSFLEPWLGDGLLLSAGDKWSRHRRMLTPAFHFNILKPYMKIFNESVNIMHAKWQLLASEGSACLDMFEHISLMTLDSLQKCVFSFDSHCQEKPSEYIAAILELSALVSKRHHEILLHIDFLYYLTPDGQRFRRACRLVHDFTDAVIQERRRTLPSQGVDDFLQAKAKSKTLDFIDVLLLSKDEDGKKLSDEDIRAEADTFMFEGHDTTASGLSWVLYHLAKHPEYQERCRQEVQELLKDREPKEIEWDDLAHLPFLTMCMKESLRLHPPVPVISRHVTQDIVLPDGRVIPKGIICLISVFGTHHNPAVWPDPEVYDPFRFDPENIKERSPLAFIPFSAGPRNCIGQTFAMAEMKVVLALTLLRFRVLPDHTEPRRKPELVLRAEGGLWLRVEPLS
run.description: Inhibition test against 20-HETE producing enzyme CYP4F2 (luciferine derivative, luminescence)
Assay type: biochemical
measurement.conditions: human CYP4F2, luciferine derivative, luminescence
experimental.endpoint: IC50 (nM)

a. O=C(O)C1(CCCCCCCCOc2ccc(-c3ccn[nH]3)nc2)CCOC1 (stereo not shown)
b. O=C(N[C@H](Cc1ccccc1)C(=O)O)c1cccc(COc2ccc(-c3ccn[nH]3)nc2)c1
c. O=C(O)[C@@H]1COc2ccc(COc3ccc(-c4ccn[nH]4)nc3)cc2C1
d. CN(CC(C)(C)C(=O)O)S(=O)(=O)c1cccc(COc2ccc(-c3ccn[nH]3)nc2)c1
[in] hey, can you rank those molecules up there by IC50? biggest number first please Could you list the labels in the order requested?
[out] b, c, d, a
(b: 890 nM, c: 600 nM, d: 130 nM, a: 14 nM)
